kon: recorded values
# target-of-assay: T1, SARS-CoV-2 spike trimer S (Wuhan, SmT1) (SARS-CoV-2 Wuhan)
# T1 construct: extracellular domain
# experimental-protocol: SPR, antigen on chip
measurement-kind: kon (M⁻¹ s⁻¹)

{"columns": ["binder", "observed-value"],
 "data": [
  ["NRCoV2-05 VHH (VHH) VHH: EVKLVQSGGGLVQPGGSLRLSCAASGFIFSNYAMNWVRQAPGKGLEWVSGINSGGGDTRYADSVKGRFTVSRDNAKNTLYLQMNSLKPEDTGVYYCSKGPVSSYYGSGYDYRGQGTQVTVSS", "4.33e+06"],
  ["NRCoV2-SR02 VHH (VHH) VHH: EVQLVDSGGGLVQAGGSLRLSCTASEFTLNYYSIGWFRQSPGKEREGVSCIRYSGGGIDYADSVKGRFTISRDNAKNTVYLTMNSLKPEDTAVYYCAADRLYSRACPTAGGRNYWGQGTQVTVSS", 967000]
]}

Attribution: patent US20240270826A1
